B1: Ventral anterior homeobox 1, residues 102 to 157; numbered along this chain, Q5SQQ9 (parent)
chain: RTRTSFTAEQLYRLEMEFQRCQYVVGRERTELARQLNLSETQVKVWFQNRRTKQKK

Variants of: B1
Experiment: abundance fitness (aPCA) (normalised: wild type 0, dead -1); higher = more abundant; growth selection in yeast, the domain comes from the species named
Conditions: Homo sapiens
Param threshold (-0.7) applies to abundance fitness; output Met when value >= threshold, Not met when value < threshold.

F47E ... Not met
E31Y ... Not met
L36N ... Not met
L32V ... Met

Ask | Given the entry R3I , answer whether its abundance fitness meets or surpasses -0.7.
Reply | Met

Ask | C21S , same question.
Reply | Met

Ask | Another: W46Q
Reply | Not met

Ask | Input L36M
Reply | Met

Ask | And what about the variant R13S ?
Reply | Met

Ask | Okay, and E31G ?
Reply | Met
